B1: Azoarcus group I ribozyme (parent)
chain: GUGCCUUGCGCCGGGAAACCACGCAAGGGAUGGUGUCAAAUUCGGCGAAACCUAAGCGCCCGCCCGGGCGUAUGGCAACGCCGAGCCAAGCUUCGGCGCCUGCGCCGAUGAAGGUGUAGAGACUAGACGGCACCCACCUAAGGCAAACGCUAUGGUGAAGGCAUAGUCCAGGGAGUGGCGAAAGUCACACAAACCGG

- Variants of: B1
- test: reverse-splicing fitness (ratio to wild type); higher = more active; in vitro selection; Mg2+ level not given
measurement_label: reverse-splicing fitness
No unit in the answer, please; the number alone is enough.

variant_identifier: C82A A111U A145U C150A C169G U176C
measurement_label: reverse-splicing fitness
reported: 0.0188
//
variant_identifier: C82A A111G A120C A145G C150G C169U
measurement_label: reverse-splicing fitness
reported: 0.00967
//
variant_identifier: C82U A111G A120U A145C C150A C169U
measurement_label: reverse-splicing fitness
reported: 0.00217
//
variant_identifier: A111C A120U A145C C150G C169A U176G
measurement_label: reverse-splicing fitness
reported: 0.00224
//
variant_identifier: C82G A111U A120C A145G U176G
measurement_label: reverse-splicing fitness
reported: 0.00743

Okay, now this variant:
input: What value of reverse-splicing fitness has been reported for the following variant? A111U A120G A145G C150G U176C
output: 0.0156

meta.source: the RNAGym collection of RNA variant scans (doi:10.1093/molbev/msab373)
